Each recorded value in this set is attributed to paper PMC4971421.

molecular target: CaV3.2 (Homo sapiens, UniProt O95180); construct: expressed in transfected cells; host or cells: HEK293 cells, transient transfection with Lipofectamine 2000; The CaV3.2 cDNA was a gift of Dr E. Perez-Reyes; The NK1 cDNA was from the Missouri S&T cDNA Resource Center; experiment: Recombinant CaV3.2 current in HEK293 cells co-transfected with NK1 receptor, perforated patch; assay type: cell-based; settings: after S9SP treatment, 1 μM S9SP in all ZnCl2 solutions; read-out: IC50(2), low-affinity site, zinc inhibition of CaV3.2
Sequence (O95180 whole entry): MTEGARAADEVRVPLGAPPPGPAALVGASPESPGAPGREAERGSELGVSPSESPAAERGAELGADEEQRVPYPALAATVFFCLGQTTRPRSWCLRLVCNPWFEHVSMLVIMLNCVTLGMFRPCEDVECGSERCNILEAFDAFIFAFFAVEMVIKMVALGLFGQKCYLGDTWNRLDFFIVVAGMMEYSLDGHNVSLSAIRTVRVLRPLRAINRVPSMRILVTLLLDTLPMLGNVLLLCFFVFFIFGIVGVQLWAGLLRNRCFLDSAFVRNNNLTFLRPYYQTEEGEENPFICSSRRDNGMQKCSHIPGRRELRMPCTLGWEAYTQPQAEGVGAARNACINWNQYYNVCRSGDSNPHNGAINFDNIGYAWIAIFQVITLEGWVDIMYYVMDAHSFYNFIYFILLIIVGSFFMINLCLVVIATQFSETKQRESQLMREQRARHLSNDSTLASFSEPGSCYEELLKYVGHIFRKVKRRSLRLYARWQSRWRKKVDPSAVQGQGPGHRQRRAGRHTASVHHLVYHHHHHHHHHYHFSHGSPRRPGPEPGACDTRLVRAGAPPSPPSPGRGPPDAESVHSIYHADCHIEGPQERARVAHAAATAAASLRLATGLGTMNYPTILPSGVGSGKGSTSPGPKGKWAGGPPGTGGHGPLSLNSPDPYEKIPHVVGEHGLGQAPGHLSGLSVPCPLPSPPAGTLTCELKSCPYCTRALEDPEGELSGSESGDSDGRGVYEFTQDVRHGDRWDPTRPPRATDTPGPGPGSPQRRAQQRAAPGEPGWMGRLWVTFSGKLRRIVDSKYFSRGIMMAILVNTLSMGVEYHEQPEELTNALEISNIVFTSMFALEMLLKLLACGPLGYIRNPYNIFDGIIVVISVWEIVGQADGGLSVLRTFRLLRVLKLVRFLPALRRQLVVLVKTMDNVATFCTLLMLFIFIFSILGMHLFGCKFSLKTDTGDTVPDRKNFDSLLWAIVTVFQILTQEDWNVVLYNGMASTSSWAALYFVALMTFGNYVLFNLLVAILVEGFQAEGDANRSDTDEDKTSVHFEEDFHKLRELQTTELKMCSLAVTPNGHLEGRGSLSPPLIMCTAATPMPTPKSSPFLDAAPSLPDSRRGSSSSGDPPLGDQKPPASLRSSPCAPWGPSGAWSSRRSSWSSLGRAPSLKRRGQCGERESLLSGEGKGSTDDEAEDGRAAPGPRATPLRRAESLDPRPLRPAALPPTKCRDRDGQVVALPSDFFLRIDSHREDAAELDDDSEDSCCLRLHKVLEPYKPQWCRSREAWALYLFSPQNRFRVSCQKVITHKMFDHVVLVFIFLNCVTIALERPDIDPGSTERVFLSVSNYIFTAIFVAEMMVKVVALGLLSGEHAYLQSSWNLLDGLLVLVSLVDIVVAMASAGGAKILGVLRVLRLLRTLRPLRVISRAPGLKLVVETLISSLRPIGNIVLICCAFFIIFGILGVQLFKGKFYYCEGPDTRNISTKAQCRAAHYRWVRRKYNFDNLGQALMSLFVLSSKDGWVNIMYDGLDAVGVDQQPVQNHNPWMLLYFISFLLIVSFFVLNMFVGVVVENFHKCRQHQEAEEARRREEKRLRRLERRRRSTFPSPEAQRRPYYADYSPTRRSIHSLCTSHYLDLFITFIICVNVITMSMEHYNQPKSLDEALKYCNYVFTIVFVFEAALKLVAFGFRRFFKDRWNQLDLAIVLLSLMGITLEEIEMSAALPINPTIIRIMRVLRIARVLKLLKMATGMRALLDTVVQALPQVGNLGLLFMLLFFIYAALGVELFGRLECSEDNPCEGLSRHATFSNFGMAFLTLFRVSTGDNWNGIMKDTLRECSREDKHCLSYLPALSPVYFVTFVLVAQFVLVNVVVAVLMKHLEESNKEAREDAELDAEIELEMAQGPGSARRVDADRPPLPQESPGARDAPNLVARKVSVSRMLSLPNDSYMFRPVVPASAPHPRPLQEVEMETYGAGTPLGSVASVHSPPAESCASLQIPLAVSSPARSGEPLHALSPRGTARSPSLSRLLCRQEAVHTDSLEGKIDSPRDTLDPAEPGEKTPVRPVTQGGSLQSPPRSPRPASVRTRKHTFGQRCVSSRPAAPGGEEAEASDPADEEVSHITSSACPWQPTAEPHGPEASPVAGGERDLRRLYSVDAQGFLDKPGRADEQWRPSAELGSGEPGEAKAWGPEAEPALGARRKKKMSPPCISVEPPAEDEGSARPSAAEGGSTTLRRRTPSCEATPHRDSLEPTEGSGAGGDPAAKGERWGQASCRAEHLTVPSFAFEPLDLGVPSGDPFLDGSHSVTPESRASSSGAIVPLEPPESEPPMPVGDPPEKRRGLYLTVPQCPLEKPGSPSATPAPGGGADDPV
REPORTED ENDPOINT: IC50 (nM)

{"COMPOUND": "[Cl-].[Cl-].[Zn+2] [ZnCl2]", "REPORTED ENDPOINT": "IC50", "UNITS LABEL": "nM", "READING": 923}

---

target: CaV3.2 (Homo sapiens); construct: expressed in transfected cells; host or cells: HEK293 cells, transient transfection with Lipofectamine 2000; The CaV3.2 cDNA was a gift of Dr E. Perez-Reyes; The NK1 cDNA was from the Missouri S&T cDNA Resource Center; experiment: Recombinant CaV3.2 current in HEK293 cells co-transfected with NK1 receptor, perforated patch; format: cell-based; conditions: after S9SP treatment, 1 μM S9SP in all ZnCl2 solutions; read-out: IC50(1), high-affinity site, zinc inhibition of CaV3.2
REPORTED ENDPOINT: IC50 (nM)

{"MOLECULAR STRING": "[Cl-].[Cl-].[Zn+2]", "REPORTED ENDPOINT": "IC50", "READING": 0.35}

---

molecular target: CaV3.2 (Homo sapiens); construct: expressed in transfected cells; host or cells: HEK293 cells, transient transfection with Lipofectamine 2000; The CaV3.2 cDNA was a gift of Dr E. Perez-Reyes; The NK1 cDNA was from the Missouri S&T cDNA Resource Center; test: Recombinant CaV3.2 current in HEK293 cells co-transfected with NK1 receptor, perforated patch; assay type: cell-based; details: control conditions; two-component logistic fit; 6–12 experiments; read-out: IC50(1), high-affinity site, zinc inhibition of CaV3.2

{"MOLECULE": "[Cl-].[Cl-].[Zn+2] [ZnCl2]", "IC50 (nM)": 0.25}

---

target: CaV3.2 (Homo sapiens); construct: expressed in transfected cells; host or cells: HEK293 cells, transient transfection with Lipofectamine 2000; The CaV3.2 cDNA was a gift of Dr E. Perez-Reyes; The NK1 cDNA was from the Missouri S&T cDNA Resource Center; assay: Recombinant CaV3.2 current in HEK293 cells co-transfected with NK1 receptor, perforated patch; type: cell-based; settings: control conditions; two-component logistic fit; 6–12 experiments; read-out: IC50(2), low-affinity site, zinc inhibition of CaV3.2
pIC50: −log10 of the molar value.

{"MOLECULAR STRING": "[Cl-].[Cl-].[Zn+2]", "pIC50": 6.31}
